Tested on: anti-desmoglein-3 scFv antibody binding to human DSG3
Test: blockers of pathogenic pemphigus antibody–desmoglein-3 binding – biochemical, validation compound set, bead-based, flow cytometry, pilot screen (AID 588368);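 note: signal is the median channel fluorescence of bead-bound GFP antibody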
Conditions: Protein G beads, DSG3-Fc, scFv-GFP binding, at 10 µM, stronger effect = lower value
measurement.type: binding (% of control) (%)
API: value field is a number in %; no unit string.

* CC1(C)CC(O)(CNCc2ccc3c(c2)OCO3)CCO1 (stereo unspecified) | 104

Q) Output measured binding (% of control) for this item: `Cc1ccc(N2CCN(C(=S)c3ccc(-c4cccc([N+](=O)[O-])c4)o3)CC2)cc1`
A) 102

Q) Output measured binding (% of control) for this item: `Cc1cc(NS(=O)(=O)c2ccc(N)cc2)no1`
A) 99.2

Q) Output measured binding (% of control) for this item: `CC1(C)CC(=O)c2cn3c(nc2C1)nc1ccccc13`
A) 103

Q) Output measured binding (% of control) for this item: CCOC(=O)C(NC(C)=O)C(O)c1ccc([N+](=O)[O-])cc1 (stereo unspecified)
A) 99.7

Q) Output measured binding (% of control) for this item: `CC1(C)CC(=O)c2cnc(NC(=O)C3CCCC3)nc2C1`
A) 96.1

Q) Output measured binding (% of control) for this item: `O=c1c(-c2ccccc2)c(O)c2cccc3c2n1CCC3`
A) 101

Q) Output measured binding (% of control) for this item: `CCOC(=O)c1cccc(P(C)(C)=O)c1`
A) 95.8

Q) Output measured binding (% of control) for this item: `Fc1ccc(-n2cc(CNCCc3ccccn3)c(-c3ccccc3Cl)n2)cc1`
A) 110

Q) Output measured binding (% of control) for this item: `COc1ccc(CCNc2ncnc3c2[nH]c2cc(OC)c(OC)cc23)cc1OC`
A) 101

Q) Output measured binding (% of control) for this item: `CCCCN(CCCC)CCCOC(=O)c1ccc(N)cc1`
A) 104

* * *

The following compounds are shown together with reported GFP response, % of DMSO values.
Test: TOR pathway CIT2 reporter hit retest – S. cerevisiae, GFP fusion, cherry picks, mother/daughter gates, confirmation (AID 2274)
Conditions: S. cerevisiae CIT2-GFP strain, flow cytometry, 3 h; measured here: mother cell gate; at 10 µM; stronger effect = higher value
API: value field is a number in %; no unit string.

Some solved cases for reference:
* N=c1c(C(=O)NCc2ccco2)cc2c(=O)n3ccccc3nc2n1CCc1ccccc1 | 91.4
* CCOc1nnc(C)c2c(C)n(-c3cccc(OC)c3)nc12 | 109
* Cc1cc(C)c(C(=O)Cn2cnc3cc([N+](=O)[O-])ccc3c2=O)cc1C | 98.2
* Cc1ccc(OCCCCn2ccnc2C)c(C)c1 | 97.7
* CN(C)CCN(Cc1ccccc1)c1ccccn1 | 98.5
* CNCCC(Oc1ccc(C(F)(F)F)cc1)c1ccccc1 (stereo unspecified) | 93.4

Q) Output measured GFP response, % of DMSO for this item: `O=c1cnn([C@@H]2O[C@H](CO)[C@@H](O)[C@H]2O)c(=O)[nH]1`
A) 74.6

Q) Output measured GFP response, % of DMSO for this item: NS(=O)(=O)c1cc2c(cc1C(F)(F)F)NC(Cc1ccccc1)NS2(=O)=O (stereo unspecified)
A) 104

* * *

The following compounds are shown together with reported GFP response vs DMSO values.
Test: TOR pathway GLN3 branch reporter MEP2-GFP changes – S. cerevisiae, multiplex flow cytometry, primary screen (AID 1867);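 note: median GFP channel fluorescence of barcode-gated MEP2-GFP cells measured by flow cytometry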
Conditions: S. cerevisiae MEP2-GFP strain, 3 h, at 10 µM, stronger effect = higher value, 100% means same as DMSO wells
Records with an inconclusive call do not appear.
API: value field is a number in %; no unit string.

Some solved cases for reference:
- CCOC(=O)c1c(O)c2c([nH]c1=O)CCCC2: 91.9
- Cc1cc(O)c(C(=O)Cc2csc(C)n2)c(O)c1: 109
- CC(=O)Oc1ccc2c(=O)c(Oc3ccccc3[N+](=O)[O-])coc2c1: 131
- COc1ccc(-c2[nH]ncc2CN(C)C(C)c2ccon2)c(OC)c1 (stereo unspecified): 137
- COc1cc(COc2ccc3c(C)c(Cc4ccccc4)c(=O)oc3c2)cc(OC)c1OC: 103

Q) Output measured GFP response vs DMSO for this item: `CS(=O)(=O)Nc1ccc([N+](=O)[O-])cc1Oc1ccccc1`
A) 97.6

Q) Output measured GFP response vs DMSO for this item: `COc1ccc2[nH]c(=O)c3c(c2c1)OC(C)(C)C=C3`
A) 105

Q) Output measured GFP response vs DMSO for this item: COc1cccc(OCC(O)CO)c1 (stereo unspecified)
A) 91.9

Q) Output measured GFP response vs DMSO for this item: `CC(C)(C)n1c(=O)[nH]c2c(c1=O)CCC2`
A) 103

Q) Output measured GFP response vs DMSO for this item: `Cc1cc(OCC(=O)C(C)(C)C)c2c(C)c(C)c(=O)oc2c1`
A) 103

Q) Output measured GFP response vs DMSO for this item: `COc1ccc(CCn2c(C)nc3c(c(=O)c4ccccc4n3C)c2=O)cc1`
A) 102
